# Tested on: MDA-MB-435
# Assay comment: NCI tumour cell line growth inhibition, 48 h
Where TGI equals or exceeds 20 µM, the correct label is label 1; where it does not, the label is label 0.

Compound	Group
COc1cc(/C=C/c2cc(C(F)(F)F)[nH]c(=O)n2)ccc1OCc1ccccc1F	label 0
COc1cc2ccnc3c2c(c1O)N(C)C=C3	label 1
Cc1cc(S(=O)(=O)Nc2nnc3cc(C(F)(F)F)cc(C)n23)c(S)cc1Cl	label 1
COC(=O)C(COC(=O)/C=C/c1ccc(OC(C)=O)c(OC(C)=O)c1)OC(=O)/C=C/c1ccc(OC(C)=O)c(OC(C)=O)c1 (stereo not given)	label 1
S=C(Nc1ccc(-c2nc3ccccc3[nH]2)cc1)NC1CCCCC1	label 1
COc1ccc(-c2c(C#N)c(-c3ccccc3)n(NS(=O)(=O)c3ccccc3)c(=O)c2C#N)cc1	label 1
CCCCCCCCCCCCCCCCNc1nc(=O)n(C2CC(O)C(CO)O2)cc1F (stereo not given)	label 1
CN1C2CC(=O)CC1[C@@H]1OC(c3ccccc3)O[C@H]21 (stereo not given in full)	label 1
Nc1nc2c(ncn2C2C=CC(CO)O2)c(=O)[nH]1 (stereo not given)	label 1
CC[N+](CCCCCCCCCC[N+](CC)(c1ccccn1)c1ccccn1)(c1ccccn1)c1ccccn1	label 0

----------
# System: OVCAR-8 ovarian
# Assay comment: NCI tumour cell line growth inhibition, 48 h

Compound	TGI
CCOc1ccc(/C=C/C(=O)c2ccccc2)cc1	34.6 µM
Cc1cc(/C=C2\SC(=Nc3ccccc3)N(C3CCCC3)C2=O)c(C)n1-c1ccc(Cl)cc1	> 100 µM
CCCCCCC/C=C/[C@H]1O[C@]23C(=O)C[C@@]4(C[C@@H](OC5OC(CO)C(O)C(O)C5O)C[C@@H]4[C@H]2C=C1C)OC3=O (stereo partly specified)	> 33.3 µM
Cc1ccc(C(=O)c2oc3ccc4c(C)cc(=O)oc4c3c2C)cc1	> 100 µM
CC(C)=CC(C(O)c1ccccc1)S(=O)(=O)c1nccn1C (stereo unspecified)	> 100 µM
O=C1c2ccccc2CC12Cc1ccc3c(c1C2)CCC3 (stereo unspecified)	> 100 µM

----------
# System: SNB-19 CNS
# Assay comment: NCI tumour cell line growth inhibition, 48 h
Measurement kind: TGI

Molecule	Subject of test	Measurement kind	Result
O=C(c1ccco1)N(C(=S)OCc1ccccn1)c1ccccc1	SNB-19 CNS	TGI	> 100 µM
CCCCCCCCCCCCCCCCCCOCC(O)COP(=O)(O)OCC1OC(n2cc(F)c(=O)[nH]c2=O)CC1O (stereo not given)	SNB-19 CNS	TGI	25.3 µM
O=C(O)C1CCc2ccc3ccccc3c2C1c1cccc2ccccc12 (stereo not given)	SNB-19 CNS	TGI	34.2 µM
Cc1[nH]c(-c2ccccc2)c(-c2ccc(Cl)cc2)c1C(=O)ONC(=O)c1ccccc1	SNB-19 CNS	TGI	19.3 µM
Cc1cc2nc3c(C(OC4OC(CO)C(O)C(O)C4O)C(O)CO)nn(-c4ccccc4)c3nc2cc1C (stereo not given)	SNB-19 CNS	TGI	> 100 µM
O=C(N=Nc1ccccc1Br)NNc1ccccc1Br	SNB-19 CNS	TGI	> 100 µM
CCCCN(c1ccccc1)c1ncnc2c1cnn2C	SNB-19 CNS	TGI	> 100 µM
CC(=O)CC1CCC(=O)CCC(=O)OC(CC(C)=O)CCC(=O)CCC(=O)O1 (stereo not given)	SNB-19 CNS	TGI	> 100 µM
CCOC(=O)C(Cc1ccccc1)(Cc1ccc(O)cn1)NC(=O)c1ccccc1 (stereo not given)	SNB-19 CNS	TGI	> 100 µM
Cc1ccc(O)c(C2=NNC(c3cccc(Br)c3)C2)c1 (stereo not given)	SNB-19 CNS	TGI	76.3 µM

----------
In this section, each of the molecules is paired with its reported TGI.
# System: COLO 205 colon
# Assay comment: NCI tumour cell line growth inhibition, 48 h

Molecule	TGI
Cc1ccc2c(c1)OC1Nc3ccccc3C1=C2O (stereo unspecified)	29.2 µM
NC(=O)c1c[se]c(C2OC(CO)C(O)C2O)n1 (stereo unspecified)	> 100 µM
CCOc1ccccc1NC(=O)/C=C1\NC(=O)CS1	> 100 µM
O=C1c2cc(Br)ccc2-c2c1c1ccc([N+](=O)[O-])cc1c(=O)n2CCCCl	> 100 µM
O=C(Nc1ccccc1C(F)(F)F)c1cccc(NC2=C(Cl)C(=O)N(Cc3ccccc3)C2=O)c1	> 100 µM
Oc1ccc(Br)cc1Sc1cc(Br)ccc1O	34.9 µM
COc1cc(C2C3=C(COC3=O)OC(C)(C)Oc3cc4c(cc32)OCO4)cc(OC)c1OC (stereo unspecified)	0.552 µM
CCN(CC)CCC1CC/C(=C\c2ccc(OC)cc2)C1=O (stereo unspecified)	38.9 µM
O=c1cc(-c2ccccc2)[nH]c2cccc(S)c12	19.2 µM
CCCCCCC/C=C/[C@H]1O[C@]23C(=O)C[C@@]4(C[C@@H](OC5OC(CO)C(O)C(O)C5O)C[C@@H]4[C@H]2C=C1C)OC3=O (stereo partly specified)	17.8 µM
COc1cc(C2c3cc4c(cc3[C@@H](Nc3ccc(C(=O)O)cc3)C3COC(=O)[C@H]23)OCO4)cc(OC)c1O (stereo partly specified)	> 100 µM
CCOC(=O)c1c(N2CCOCC2)[nH]c(=O)c(C(c2ccc(OC)cc2)c2c(O)c(C(=O)OCC)c(N3CCOCC3)[nH]c2=O)c1O	> 100 µM
COc1cc(-c2cc(=O)c3cc4c(cc3[nH]2)OCO4)cc(OC)c1OC	> 100 µM
O=c1oc2ccccc2c(O)c1/C=N\c1nc(-c2ccccc2)cs1	11.5 µM
CC[N+](CCCCCCCCCC[N+](CC)(c1ccccn1)c1ccccn1)(c1ccccn1)c1ccccn1	11.6 µM
NC(N)=N/N=C(/c1nc2ccc([N+](=O)[O-])cc2[nH]c1=O)C(O)c1ccco1 (stereo unspecified)	> 100 µM
COC(=O)c1cncc2c1CC1C3(C(=O)OC)C=NC(C4C(CO)=CCC43)C21C (stereo unspecified)	> 100 µM
O=C1NC(N/N=C\c2ccccc2)=N/C1=C/c1ccc(Cl)cc1	> 100 µM
c1ccc2c(c1)[I+]c1ccccc1-2	> 50 µM
CCCCSc1n/c(=C\c2ccc(N(C)C)cc2)c2nnnn12	> 100 µM
Cc1nn(C(=O)c2ccccc2O)c2c1C(c1ccccc1)SC(N)=N2 (stereo unspecified)	> 10 µM
COc1c/c(=C2/C=c3ccccc3=N2)[nH]/c1=C/c1[nH]c(C)cc1C	1.26 µM
COC(OC)C(O)C1OC=CC1n1cnc2c(N)ncnc21 (stereo unspecified)	> 100 µM
c1cnc2c(c1)-n1cccc1C1(CCSCC1)NN2	> 100 µM
O=[As](O)(O)c1cc(N=Nc2ccc(-c3ccc(N=Nc4cc([As](=O)(O)O)c(O)cc4O)cc3)cc2)c(O)cc1O	> 100 µM
O=C(O)c1ccc(Nc2nc3cc(C(F)(F)F)ccc3nc2C(=O)O)cc1	> 100 µM
O=C1C(Br)=C[C@H]2C3C=CC(Br)(C3=O)[C@@H]12 (stereo partly specified)	21.4 µM
CN(C)CCNc1nc2ccccc2c2c1c1c(n2Cc2ccccc2)-c2ccccc2C1=O	65.3 µM
S=C(Nc1ccc(-c2nc3ccccc3[nH]2)cc1)NC1CCCCC1	> 100 µM
O=C(NNC(=S)Nc1ccccc1)c1csc(NC(=S)NC2CCCCC2)n1	> 100 µM
Cc1nc2ccc(C(F)(F)F)cc2nc1Nc1ccc(Cl)c(Cl)c1	11.9 µM
COc1cc2nc(-c3ccc(C(F)(F)F)cc3)cc(OCCCN3CCOCC3)c2cc1OC	10.3 µM
O=C1C=C(c2c(O)ccc3ccccc23)c2ccccc2C1=O	21.7 µM
COC(=O)C(C)Sc1nc2cc(Cl)ccc2s1 (stereo unspecified)	> 100 µM
CCOC(=O)c1cn(-c2ccc(Cl)cc2)c(=O)n2c1nc1ccccc12	> 100 µM
N#CCCN(CCCN(C(=O)Nc1ccccc1)c1ccccc1)C(=O)Nc1ccccc1	> 100 µM

----------
compounds and their reported GI50
# System: A549 NSCLC
# Assay comment: NCI tumour cell line growth inhibition, 48 h

Structure string	GI50
O=C(Nc1ccccc1C(F)(F)F)c1cccc(NC2=C(Cl)C(=O)N(Cc3ccccc3)C2=O)c1	28.2 µM
CCOc1ccc(/C=C/C(=O)c2ccccc2)cc1	21.9 µM
c1ccc2c(c1)[I+]c1ccccc1-2	> 50 µM
COC(=O)CCC/C=C\C[C@H]1C=CC(=O)/C1=C/C[C@@H](O)CCc1cccc(C(F)(F)F)c1	3.55 µM
Clc1nc(Oc2ccccc2)nc(-c2cn(-c3ccccc3)c3ccccc23)n1	27.4 µM
CN1CCN(Cc2ccc(NC(=O)c3cncc(C#Cc4cnc(N)c5ccc(F)cc45)c3)cc2C(F)(F)F)CC1	2.04 µM
C[CH2][Sn]1([CH2]C)[O]C(=O)[O][Sn]([CH2]C)([CH2]C)[O]1	> 65.4 µM
O=C(Nc1ccc(Cl)cc1)Nc1ccc(Cl)c(Cl)c1	4.58 µM
COc1cc([C@H](C)c2ccc3ccccc3c2)cc(OC)c1OC	0.595 µM
COc1cc(-c2cnn(C)c2)ccc1Nc1ncc2ccnc(N[C@@H](C)C(C)(C)C)c2n1	> 45.5 µM
